# Test system: NCI-H1944
# PROTOCOL_DETAILS: relative viability (nuclei count vs DMSO), 5 days (fraction); higher = more cells survive
# TEST_SETTINGS: first compound 0.4 µM
Exam item: assign 1 to entries whose relative viability is below 0.6 and -1 to entries at or above 0.6. Note that a value of exactly 0.6 receives -1.

MOLECULE: O=C(O)c1ccc(-c2c[nH]c3ncc(-c4ccccc4)cc23)cc1C1CCCC1 + Cc1cc(Nc2cc(N3CCN(C)CC3)nc(Sc3ccc(NC(=O)C4CC4)cc3)n2)n[nH]1 [Tozasertib] (partner 0.1 µM)
CATEGORY: 1

MOLECULE: O=C(O)c1ccc(-c2c[nH]c3ncc(-c4ccccc4)cc23)cc1C1CCCC1 + Nc1nc2[nH]cc(CCc3ccc(C(=O)N[C@@H](CCC(=O)O)C(=O)O)cc3)c2c(=O)[nH]1 [Pemetrexed] (partner 0.2 µM)
CATEGORY: -1

MOLECULE: O=C(O)c1ccc(-c2c[nH]c3ncc(-c4ccccc4)cc23)cc1C1CCCC1 + CC(=O)Nc1cccc(-n2c(=O)n(C3CC3)c(=O)c3c(Nc4ccc(I)cc4F)n(C)c(=O)c(C)c32)c1 [Trametinib] (partner 0.02 µM)
CATEGORY: 1

MOLECULE: O=C(O)c1ccc(-c2c[nH]c3ncc(-c4ccccc4)cc23)cc1C1CCCC1 + O=C(CCCCCCC(=O)Nc1ccccc1)NO [Vorinostat] (partner 1 µM)
CATEGORY: 1

MOLECULE: O=C(O)c1ccc(-c2c[nH]c3ncc(-c4ccccc4)cc23)cc1C1CCCC1 + Cc1nc(NC(=O)N2CCC[C@H]2C(N)=O)sc1-c1ccnc(C(C)(C)C(F)(F)F)c1 [Alpelisib] (partner 2 µM)
CATEGORY: -1

###

In this section, each of the molecules is paired with its reported relative viability.
# Test system: NCI-H2342
# PROTOCOL_DETAILS: relative viability (nuclei count vs DMSO), 5 days (fraction); higher = more cells survive
# TEST_SETTINGS: first compound 8 µM
MEASUREMENT_NAME: relative viability

MOLECULE: C=C1C(=O)O[C@@H](CCCCCCCC)[C@@H]1C(=O)O [C-75] + N=C(N)NC(=N)NCCc1ccccc1 [Phenformin] (partner 250 µM)
MEASUREMENT_NAME: relative viability
RESULT: 0.524
//
MOLECULE: C=C1C(=O)O[C@@H](CCCCCCCC)[C@@H]1C(=O)O [C-75] + Cc1nc(Nc2ncc(C(=O)Nc3c(C)cccc3Cl)s2)cc(N2CCN(CCO)CC2)n1 [Dasatinib] (partner 0.075 µM)
MEASUREMENT_NAME: relative viability
RESULT: 0.316
//
MOLECULE: C=C1C(=O)O[C@@H](CCCCCCCC)[C@@H]1C(=O)O [C-75] + Nc1ncn([C@H]2C[C@H](O)[C@@H](CO)O2)c(=O)n1 [Decitabine] (partner 2 µM)
MEASUREMENT_NAME: relative viability
RESULT: 0.722
//
MOLECULE: C=C1C(=O)O[C@@H](CCCCCCCC)[C@@H]1C(=O)O [C-75] + O=C(CCCCCCC(=O)Nc1ccccc1)NO [Vorinostat] (partner 1 µM)
MEASUREMENT_NAME: relative viability
RESULT: 0.736
//
MOLECULE: C=C1C(=O)O[C@@H](CCCCCCCC)[C@@H]1C(=O)O [C-75] + Cc1cc(Nc2cc(N3CCN(C)CC3)nc(Sc3ccc(NC(=O)C4CC4)cc3)n2)n[nH]1 [Tozasertib] (partner 0.1 µM)
MEASUREMENT_NAME: relative viability
RESULT: 0.472
//
MOLECULE: C=C1C(=O)O[C@@H](CCCCCCCC)[C@@H]1C(=O)O [C-75] + CC(=O)Nc1cccc(-n2c(=O)n(C3CC3)c(=O)c3c(Nc4ccc(I)cc4F)n(C)c(=O)c(C)c32)c1 [Trametinib] (partner 0.02 µM)
MEASUREMENT_NAME: relative viability
RESULT: 0.917
